# test_target: RLM GDH1 (Rattus norvegicus, UniProt P10860)
# experimental_details: GDH reverse (aminating) reaction activity in rat liver mitochondria (RLM)
# Assay type: biochemical
# test_settings: RLM, pH 7.5, reverse reaction
# Protocol: Tightly coupled mitochondria were isolated from fed-rat liver (RLM) and AS-30D cells (HepM) as described elsewhere ([89], [90]). […] The resulting mitochondrial fractions were resuspended at 30 to 80 mg protein/mL in SHE buffer with 1 mM PMSF, 1 mM EDTA, 5 mM DTT, and 10% glycerol, and stored at −70°C until use for determination of enzyme activity and Western blotting.
endpoint_name: IC50 (µM)
Please respond with the number in µM and leave the unit unwritten.

Look up IC50: Nc1nc2c(ncn2[C@@H]2O[C@H](COP(=O)(O)OP(=O)(O)OP(=O)(O)O)[C@@H](O)[C@H]2O)c(=O)[nH]1
244

###

# test_target: RLM GDH1 (Rattus norvegicus)
# experimental_details: GDH reverse (aminating) reaction activity in rat liver mitochondria (RLM)
# Format: biochemical
# test_settings: RLM, pH 7.5, MWC equation, saturating ADP; read-out: Ki GTP
# Procedure: Tightly coupled mitochondria were isolated from fed-rat liver (RLM) and AS-30D cells (HepM) as described elsewhere ([89], [90]). […] The resulting mitochondrial fractions were resuspended at 30 to 80 mg protein/mL in SHE buffer with 1 mM PMSF, 1 mM EDTA, 5 mM DTT, and 10% glycerol, and stored at −70°C until use for determination of enzyme activity and Western blotting.
endpoint_name: pKi
Answer as the number alone; pKi is minus log10 of concentration in mol/L.

I'm curious: which pKi was measured for Nc1nc2c(ncn2[C@@H]2O[C@H](COP(=O)(O)OP(=O)(O)OP(=O)(O)O)[C@@H](O)[C@H]2O)c(=O)[nH]1 tested on RLM GDH1 (Rattus norvegicus)?
4.50

###

# test_target: HepM GDH1 (Rattus norvegicus)
endpoint_name: IC50 (µM)
A number alone suffices; assume µM.

Provide value of IC50 for this record tested with HepM GDH1 (Rattus norvegicus): Nc1nc2c(ncn2[C@@H]2O[C@H](COP(=O)(O)OP(=O)(O)OP(=O)(O)O)[C@@H](O)[C@H]2O)c(=O)[nH]1
114

###

# test_target: HepM GDH1 (Rattus norvegicus, UniProt P10860)
# Sequence (P10860 54-558): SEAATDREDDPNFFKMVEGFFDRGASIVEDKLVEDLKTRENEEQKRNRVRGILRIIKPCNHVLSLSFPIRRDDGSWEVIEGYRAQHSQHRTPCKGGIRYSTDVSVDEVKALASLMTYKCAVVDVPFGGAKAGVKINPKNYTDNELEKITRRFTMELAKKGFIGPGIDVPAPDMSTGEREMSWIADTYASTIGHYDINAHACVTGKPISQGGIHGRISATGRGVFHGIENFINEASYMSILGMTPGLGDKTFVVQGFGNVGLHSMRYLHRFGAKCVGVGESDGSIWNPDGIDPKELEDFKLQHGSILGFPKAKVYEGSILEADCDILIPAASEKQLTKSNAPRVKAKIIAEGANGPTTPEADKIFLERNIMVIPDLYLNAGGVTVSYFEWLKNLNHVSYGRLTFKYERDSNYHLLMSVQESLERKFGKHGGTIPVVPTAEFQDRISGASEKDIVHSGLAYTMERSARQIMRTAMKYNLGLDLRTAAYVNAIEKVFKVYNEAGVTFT
# experimental_details: GDH reverse (aminating) reaction activity in hepatoma mitochondria (HepM)
# Assay type: biochemical
# test_settings: HepM, pH 7.5, allosteric activator, Hill equation; read-out: K0.5 ADP
endpoint_name: EC50 (µM)
# output: bare number, implied unit µM

Look at this compound and give its reported EC50. Nc1ncnc2c1ncn2[C@@H]1O[C@H](COP(=O)(O)OP(=O)(O)O)[C@@H](O)[C@H]1O [ADP]
281

###

# test_target: HepM GDH1 (Rattus norvegicus, UniProt P10860)
# experimental_details: GDH reverse (aminating) reaction activity in hepatoma mitochondria (HepM)
# Assay type: biochemical
# test_settings: HepM, pH 7.2, allosteric activator, Hill equation; read-out: K0.5 ADP
endpoint_name: EC50 (µM)
I only need the number, in µM, no unit after it.

Please state recorded EC50 (tested on HepM GDH1 (Rattus norvegicus, UniProt P10860)) of Nc1ncnc2c1ncn2[C@@H]1O[C@H](COP(=O)(O)OP(=O)(O)O)[C@@H](O)[C@H]1O
564

###

# test_target: RLM GDH1 (Rattus norvegicus)
# experimental_details: GDH reverse (aminating) reaction activity in rat liver mitochondria (RLM)
# Assay type: biochemical
# test_settings: RLM, pH 7.5, allosteric activator, Hill equation; read-out: K0.5 ADP
endpoint_name: EC50

Consider the molecule Nc1ncnc2c1ncn2[C@@H]1O[C@H](COP(=O)(O)OP(=O)(O)O)[C@@H](O)[C@H]1O [ADP] and give its measured EC50.
285 µM

# credit: paper PMC7160333
